assay.method.text: Selectivity ratio of EC50 for HCV JFH-1 expressing NS4B to EC50 for HCV Con1 expressing wild type NS4B
Format: functional
Ratio EC50 values, listed per item
Output spec: single numeric token, no unit.

Please review the following examples before continuing.
* Cc1cc(-c2nnc(N[C@@H]3CCC[C@H](O)C3)o2)nc2c(C(C)(C)C)cc(NCC(F)(F)F)cc12 | 30
* Cc1cc(-c2nnc(NCC3OCCO3)o2)nc2c(C(C)(C)C)cc(OCC(F)(F)F)cc12 | 2720
* Cc1cc(-c2nnc(N[C@@H]3CCC[C@H](O)C3)o2)nc2c(C(C)(C)C)cc(OCC(F)(F)F)cc12 | 300

Record request: Ratio EC50 value, item Cc1cc(-c2nnc(N[C@H]3C[C@](O)(C(F)F)C3)o2)nc2c(C(C)(C)C)cc(NCC(F)(F)F)cc12
312

---

assay.method.text: Clearance in iv dosed Sprague-Dawley rat administered as 30 mins infusion
Format: ADME, organism-based
details: in vivo
clearance values, listed per item
Expressed in mL/min/kg, but write only the number.

Please review the following examples before continuing.
- Cc1cc(-c2nnc(Nc3ccccc3)o2)nc2c(C(F)(F)F)cc(-c3ccccc3)cc12: 17.5
- Cc1cc(-c2nnc(N[C@H]3C[C@](O)(C(F)F)C3)o2)nc2c(C(C)(C)C)cc(NCC(F)(F)F)cc12: 14.5

// next item, clearance requested
Record request: clearance value, item Cc1cc(-c2nnc(N[C@@H]3CCC[C@H](O)C3)o2)nc2c(C(C)(C)C)cc(NCC(F)(F)F)cc12
10.8

---

assay.method.text: Intrinsic clearance in human liver microsomes at 3 uM after 1 hr in presence of NADPH and UDP-glucuronic acid
Format: ADME
details: read-out: CLH (converted)
CLint scaled at 3 µM values, listed per item
Expressed in mL/min/kg, but write only the number.

* Cc1cc(-c2nnc(N[C@@H]3CCC[C@H](O)C3)o2)nc2c(C(C)(C)C)cc(NCC(F)(F)F)cc12 | 3.67
* Cc1cc(-c2nnc(Nc3ccccc3)o2)nc2c(C(F)(F)F)cc(-c3ccccc3)cc12 | 7.67

Record request: CLint scaled at 3 µM value, item Cc1cc(-c2nnc(N[C@H]3C[C@](O)(C(F)F)C3)o2)nc2c(C(C)(C)C)cc(NCC(F)(F)F)cc12
3.33

---

assay.method.text: Lipophilicity, log D of the compound at pH 7.4 by chromatographic analysis
Assay type: physicochemical
details: buffer
metric: chromatographic logD
Output spec: single numeric token, no unit.

Please review the following examples before continuing.
• Cc1cc(-c2nnc(NC3CCCC3)o2)nc2c(C(C)(C)C)cc(NCC(F)(F)F)cc12 = 4.6
• Cc1cc(-c2nnc(NCC3OCCO3)o2)nc2c(C(C)(C)C)cc(OCC(F)(F)F)cc12 = 3.9
• Cc1cc(-c2nnc(N[C@H]3C[C@](O)(C(F)F)C3)o2)nc2c(C(C)(C)C)cc(OCC(F)(F)F)cc12 = 4.1
• COc1cc(C(F)(F)F)c2nc(-c3nnc(NCC4OCCO4)o3)cc(C)c2c1 = 3.4

Record request: chromatographic logD value, item Cc1cc(-c2nnc(N[C@@H]3CCC[C@H](O)C3)o2)nc2c(C(C)(C)C)cc(OCC(F)(F)F)cc12
4

Also, Cc1cc(-c2nnc(N[C@@H]3CCC[C@H](O)C3)o2)nc2c(C(C)(C)C)cc(NCC(F)(F)F)cc12 please.
3.6

Also, Cc1cc(-c2nnc(NC3CCCC3)o2)nc2c(C(C)(C)C)cc(OCC(F)(F)F)cc12 please.
4.9

---

assay.method.text: Cytotoxicity against human HuH7 cells
Format: cell-based, Huh-7
We label by threshold. Values of CC50 strictly beneath 20 µM are Yes. Values of 20 µM and up are No.

Record Cc1cc(-c2nnc(Nc3ccccc3)o2)nc2c(C(F)(F)F)cc(-c3ccccc3)cc12 : is its CC50 strictly below 20 µM?
No

Also, Cc1cc(-c2nnc(N[C@H]3C[C@H](O)C3)o2)nc2c(C(C)(C)C)cc(OCC(F)(F)F)cc12 please.
No

Also, Cc1cc(-c2nnc(N[C@H]3C[C@](O)(C(F)F)C3)o2)nc2c(C(C)(C)C)cc(NCC(F)(F)F)cc12 please.
Yes

---

assay.method.text: Oral bioavailability in Sprague-Dawley rat
Format: ADME, organism-based
details: in vivo
metric: bioavailability (%)
Expressed in %, but write only the number.

* Cc1cc(-c2nnc(N[C@H]3C[C@](O)(C(F)F)C3)o2)nc2c(C(C)(C)C)cc(NCC(F)(F)F)cc12 | 25

// next item, bioavailability requested
Record request: bioavailability value, item Cc1cc(-c2nnc(N[C@@H]3CCC[C@H](O)C3)o2)nc2c(C(C)(C)C)cc(NCC(F)(F)F)cc12
88

---

Tested on: Hepatitis C virus
assay.method.text: Antiviral activity against HCV genotype 6a expressing NS4B infected in human HuH7 cells assessed as inhibition of viral RNA replication after 3 days by dual-glo luciferase reporter gene assay
Format: functional, organism-based, Hepacivirus hominis
details: Huh-7, 72 h
metric: EC50

Record request: EC50 value, item Cc1cc(-c2nnc(N[C@@H]3CCC[C@H](O)C3)o2)nc2c(C(C)(C)C)cc(NCC(F)(F)F)cc12
3.1 nM

---

System: Hepatitis C virus
assay.method.text: Antiviral activity against HCV Con1 expressing NS4B H94N mutant infected in human HuH7 cells assessed as inhibition of viral RNA replication after 3 days by dual-glo luciferase reporter gene assay
Format: functional, organism-based, Hepacivirus hominis
details: isolate Con1, Huh-7, 72 h
We label by threshold. Values of EC50 strictly beneath 0.005 µM are 1. Values of 0.005 µM and up are -1.

Completed entries (count: 5):
• Cc1cc(-c2nnc(NCC3OCCO3)o2)nc2c(C(F)(F)F)cc(OCC(F)(F)F)cc12 = -1
• Cc1cc(-c2nnc(N[C@H]3C[C@H](O)C3)o2)nc2c(C(C)(C)C)cc(OCC(F)(F)F)cc12 = -1
• Cc1cc(-c2nnc(N[C@H]3C[C@@H](O)C3)o2)nc2c(C(C)(C)C)cc(OCC(F)(F)F)cc12 = -1
• Cc1cc(-c2nnc(N[C@@H]3CCC[C@H](O)C3)o2)nc2c(C(C)(C)C)cc(OCC(F)(F)F)cc12 = -1
• Cc1cc(-c2nnc(NC3CCCC3)o2)nc2c(C(C)(C)C)cc(OCC(F)(F)F)cc12 = -1

Record Cc1cc(-c2nnc(NC3CCCC3)o2)nc2c(C(C)(C)C)cc(NCC(F)(F)F)cc12 : is its EC50 strictly below 0.005 µM?
-1

Also, Cc1cc(-c2nnc(NCC3OCCO3)o2)nc2c(C(C)(C)C)cc(NCC(F)(F)F)cc12 please.
1

---

Tested on: Hepatitis C virus
assay.method.text: Antiviral activity against HCV JFH-1 expressing NS4B infected in human HuH7 cells assessed as inhibition of viral RNA replication after 3 days by dual-glo luciferase reporter gene assay
Format: functional, organism-based, Hepacivirus hominis
details: JFH-1, Huh-7, 72 h
pEC50 values, listed per item
The read-out pEC50 is expressed as -log10 of concentration in moles per litre.

• Cc1cc(-c2nnc(NC3CCCC3)o2)nc2c(C(C)(C)C)cc(OCC(F)(F)F)cc12 = 5.52

Record request: pEC50 value, item Cc1cc(-c2nnc(NC3CCCC3)o2)nc2c(C(C)(C)C)cc(NCC(F)(F)F)cc12
6.28

Also, Cc1cc(-c2nnc(N[C@@H]3CCC[C@H](O)C3)o2)nc2c(C(C)(C)C)cc(NCC(F)(F)F)cc12 please.
8.52

Also, Cc1cc(-c2nnc(NCC3OCCO3)o2)nc2c(C(F)(F)F)cc(OCC(F)(F)F)cc12 please.
4.81

Also, Cc1cc(-c2nnc(N[C@H]3C[C@@H](O)C3)o2)nc2c(C(C)(C)C)cc(OCC(F)(F)F)cc12 please.
6.68

Also, Cc1cc(-c2nnc(NCC3OCCO3)o2)nc2c(C(C)(C)C)cc(OCC(F)(F)F)cc12 please.
5.45

Also, Cc1cc(-c2nnc(NCC3OCCO3)o2)nc2c(C(C)(C)C)cc(NCC(F)(F)F)cc12 please.
5.96

Also, Cc1cc(-c2nnc(N[C@H]3C[C@H](O)C3)o2)nc2c(C(C)(C)C)cc(OCC(F)(F)F)cc12 please.
5.28

Also, Cc1cc(-c2nnc(N[C@H]3C[C@](O)(C(F)F)C3)o2)nc2c(C(C)(C)C)cc(NCC(F)(F)F)cc12 please.
7.60

Also, Cc1cc(-c2nnc(N[C@@H]3CCC[C@H](O)C3)o2)nc2c(C(C)(C)C)cc(OCC(F)(F)F)cc12 please.
7.02

Also, Cc1cc(-c2nnc(N[C@H]3CCC[C@@H](O)C3)o2)nc2c(C(C)(C)C)cc(NCC(F)(F)F)cc12 please.
6.70

Also, Cc1cc(-c2nnc(N[C@H]3C[C@](O)(C(F)F)C3)o2)nc2c(C(C)(C)C)cc(OCC(F)(F)F)cc12 please.
6.16
